Cited source: patent US20220204497A1

Molecular target: AIMP2-DX2 (Homo sapiens, UniProt Q13155)
Test: DX2-nanoluciferase assay (DX2 expression change) in transfected A549 cells
Settings: A549, 4 h, read-out: DX-Nanoluciferase activity (40 μM), 40 μM, 4 hours treatment, A549 cells transfected with nanoluciferase-DX2; inhibitory effect on AIMP2-DX2 expression
RECORDED_ENDPOINT: inhibition at 40 µM (%)

A selection of reference data follows.
{"SMILES_STRUCTURE": "CON(C)C(=O)[C@H](CC(C)C)NS(=O)(=O)c1ccc(C)cc1", "inhibition at 40 µM [%]": 63.7}
{"SMILES_STRUCTURE": "O=C(NCc1ccco1)[C@H](Cc1c[nH]c2ccccc12)NS(=O)(=O)c1ccc(Br)cc1", "inhibition at 40 µM [%]": -4.97}
{"SMILES_STRUCTURE": "Cc1ccc(S(=O)(=O)N[C@@H](CC(C)C)C(=O)Nc2ncc(N3CCOCC3)s2)cc1", "inhibition at 40 µM [%]": 37.7}
{"SMILES_STRUCTURE": "O=C(Nc1nccs1)[C@H](Cc1c[nH]c2ccccc12)NS(=O)(=O)c1ccc(Br)cc1", "inhibition at 40 µM [%]": 57.5}
{"SMILES_STRUCTURE": "COc1ccc(-c2csc(NC(=O)[C@H](Cc3c[nH]cn3)NS(=O)(=O)c3ccc(Br)cc3)n2)cc1", "inhibition at 40 µM [%]": 27.2}
{"SMILES_STRUCTURE": "Cc1ccc(S(=O)(=O)N[C@H](CC(C)C)C(=O)N2CCOCCOCCOCC2)cc1", "inhibition at 40 µM [%]": 10.7}

a: Cc1ccc(S(=O)(=O)N[C@@H](CO)C(=O)N2CCOCC2)cc1
b: COc1ccc(N2CCN(C(=O)[C@H](Cc3c[nH]c4ccccc34)NS(=O)(=O)c3ccc(C)cc3)CC2)cc1
Between the entries labeled a and b , whose measured inhibition at 40 µM is lower? // output: label of the selected item
a

###

Test system: A549 cells
Experiment: Cell viability by MTT method in A549 cells
Type: cell-based
Parameters: concentration or dose not given beside the values
Conditions: 72 hours treatment
// reported Cell Viability (% inhibition) (A549) per item
Express the result in % but write the number alone.

A selection of reference data follows.
{"SMILES_STRUCTURE": "COc1ccc(-c2csc(NC(=O)[C@H](CC(C)C)NS(=O)(=O)c3ccc(C)cc3)n2)cc1", "UNIT_OF_MEASUREMENT": "%", "VAL": 89.25}
{"SMILES_STRUCTURE": "CC(C)C[C@H](NS(=O)(=O)c1ccc(Br)cc1)C(=O)Nc1ccc(N2CCOCC2)cc1", "UNIT_OF_MEASUREMENT": "%", "VAL": 39.56}

Consider the compound `COc1cc(N2CCOCC2)ccc1NC(=O)[C@H](Cc1c[nH]c2ccccc12)NS(=O)(=O)c1ccc(C)cc1` and give its recorded Cell Viability (% inhibition) (A549).
34.01

Consider the compound `Cc1ccc(S(=O)(=O)N[C@H](CC(C)C)C(=O)N2CCOCC2)cc1` and give its recorded Cell Viability (% inhibition) (A549).
29.46

###

Biological target: AIMP2-DX2 (Homo sapiens, UniProt Q13155)
Assay: DX2-nanoluciferase assay (DX2 expression change) in transfected A549 cells
Conditions: A549, 4 h, read-out: DX-Nanoluciferase activity (40 μM), 40 μM, 4 hours treatment, A549 cells transfected with nanoluciferase-DX2; inhibitory effect on AIMP2-DX2 expression
RECORDED_ENDPOINT: inhibition at 40 µM (%)

I: Cc1ccc(S(=O)(=O)N[C@@H](Cc2ccccc2)C(=O)N2CCOCC2)cc1 [Compound 38]
II: O=C(O)[C@H](Cc1c[nH]c2ccccc12)NS(=O)(=O)c1ccc(Br)cc1 [Compound 85]
III: Cc1ccc(S(=O)(=O)N[C@@H](Cc2c[nH]c3ccccc23)C(=O)N2CCOCCOCCOCC2)cc1 [Compound 105]
Provide the items ranked by increasing inhibition at 40 µM. The reply should contain the labels ordered as requested.
II, I, III

I: CC(C)C[C@H](NC(=O)Nc1ccccc1)C(=O)N1CCOCC1 [Compound 56]
II: COc1ccc(-c2csc(NC(=O)[C@H](CC(C)C)NS(=O)(=O)c3ccc(C)cc3)n2)cc1OC [Compound 91]
Between the entries labeled I and II , whose measured inhibition at 40 µM is lower? // output: label of the selected item
II

###

Test system: A549 cells
Test: Cell viability by MTT method in A549 cells
Type: cell-based
Set-up: concentration or dose not given beside the values
Conditions: 72 hours treatment
// reported Cell Viability (% inhibition) (A549) per item
Express the result in % but write the number alone.

A selection of reference data follows.
{"SMILES_STRUCTURE": "Cc1ccc(S(=O)(=O)N[C@@H](Cc2c[nH]c3ccccc23)C(=O)Nc2ccc(N3CCNCC3)cc2)cc1", "Cell Viability (% inhibition) (A549), %": 16.44}
{"SMILES_STRUCTURE": "COC(=O)c1ccc(-c2csc(NC(=O)[C@H](CC(C)C)NS(=O)(=O)c3ccc(C)cc3)n2)cc1", "Cell Viability (% inhibition) (A549), %": 79.24}
{"SMILES_STRUCTURE": "COc1ccc(-c2csc(NC(=O)[C@H](CNC(=O)c3cncnc3)NS(=O)(=O)c3ccc(C)cc3)n2)cc1", "Cell Viability (% inhibition) (A549), %": 40.98}

Consider the molecule `Cc1ccccc1S(=O)(=O)N[C@@H](Cc1c[nH]c2ccccc12)C(=O)Nc1ccc(N2CCOCC2)cc1` and give its recorded Cell Viability (% inhibition) (A549).
51.75

###

Tested on: A549 cells
Assay: Cell viability by MTT method in A549 cells
Assay type: cell-based
Design: concentration or dose not given beside the values
Conditions: 72 hours treatment
// reported Cell Viability (% inhibition) (A549) per item
Express the result in % but write the number alone.

A selection of reference data follows.
{"SMILES_STRUCTURE": "COC(=O)CC[C@@H](C(=O)Nc1ccc(N2CCOCC2)cc1)N(C)S(=O)(=O)c1ccccc1", "UNIT_OF_MEASUREMENT": "%", "Cell Viability (% inhibition) (A549)": 17.75}
{"SMILES_STRUCTURE": "Cc1ccc(S(=O)(=O)N[C@@H](CC(C)C)C(=O)OCc2ccccc2)cc1", "UNIT_OF_MEASUREMENT": "%", "Cell Viability (% inhibition) (A549)": 96.77}
{"SMILES_STRUCTURE": "COc1ccc(-c2csc(NC(=O)[C@H](Cc3c[nH]c4ccccc34)NS(=O)(=O)c3ccc(Cl)cc3)n2)cc1", "UNIT_OF_MEASUREMENT": "%", "Cell Viability (% inhibition) (A549)": 83.3}

Consider the molecule `CC(C)C[C@H](NC(=O)CCS(=O)(=O)c1ccccc1)C(=O)Nc1ccc(N2CCOCC2)cc1` and give its recorded Cell Viability (% inhibition) (A549).
−1.25

Consider the molecule `Cc1ccc(S(=O)(=O)N[C@@H](CC(C)C)C(=O)Nc2ccc(N3C[C@@H](C)O[C@@H](C)C3)nc2)cc1` and give its recorded Cell Viability (% inhibition) (A549).
14.99

Consider the molecule `Cc1ccc(S(=O)(=O)N[C@@H](CC(C)C)C(=O)N2CCOCC2)cc1` and give its recorded Cell Viability (% inhibition) (A549).
17.79

Consider the molecule `CC(C)C[C@H](NS(=O)(=O)c1ccc(O)cc1)C(=O)N1CCOCCOCCOCC1` and give its recorded Cell Viability (% inhibition) (A549).
−1.97

###

Target: AIMP2-DX2 (Homo sapiens)
Sequence (Q13155 1-251 isoform Q13155-2): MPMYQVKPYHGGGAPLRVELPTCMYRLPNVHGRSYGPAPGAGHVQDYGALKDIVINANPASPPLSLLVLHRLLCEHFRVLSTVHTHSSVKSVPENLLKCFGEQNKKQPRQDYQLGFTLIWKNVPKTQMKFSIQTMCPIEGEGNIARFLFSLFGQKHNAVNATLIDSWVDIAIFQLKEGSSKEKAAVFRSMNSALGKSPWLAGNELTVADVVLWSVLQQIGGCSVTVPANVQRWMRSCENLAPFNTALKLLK
Test: DX2-nanoluciferase assay (DX2 expression change) in transfected A549 cells
Conditions: A549, 4 h, read-out: DX-Nanoluciferase activity (40 μM), 40 μM, 4 hours treatment, A549 cells transfected with nanoluciferase-DX2; inhibitory effect on AIMP2-DX2 expression
RECORDED_ENDPOINT: inhibition at 40 µM (%)

{"COMPOUND": "CC(C)C[C@H](NC(=O)c1ccc(C(C)(C)C)cc1)C(=O)OCc1ccccc1 [Compound 51]", "VAL": 63.5}
{"COMPOUND": "CON(C)C(=O)[C@H](Cc1c[nH]c2ccccc12)NS(=O)(=O)c1ccc(C)cc1 [Compound 104]", "VAL": 64.3}
{"COMPOUND": "CC(C)C[C@H](NC(=O)CCS(=O)(=O)c1ccccc1)C(=O)Nc1ccc(N2CCOCC2)cc1 [Compound 61]", "VAL": 60.3}
{"COMPOUND": "CC(C)C[C@H](NS(=O)(=O)c1ccc(OCc2ccccc2)cc1)C(=O)N1CCOCCOCCOCC1 [Compound 34]", "VAL": 34.4}
{"COMPOUND": "CC(=O)Nc1cccc(S(=O)(=O)N[C@@H](CC(C)C)C(=O)N2CCOCC2)c1 [Compound 153]", "VAL": 26.9}
{"COMPOUND": "COc1ccc(N2CCN(C(=O)[C@H](Cc3c[nH]c4ccccc34)NS(=O)(=O)c3ccc(Br)cc3)CC2)cc1 [Compound 202]", "VAL": 38.6}

A: Cc1ccc(S(=O)(=O)N[C@@H](CC(=O)OC(C)(C)C)C(=O)N2CCOCC2)cc1 [Compound 37]
B: Cc1ccc(S(=O)(=O)NC2(C(=O)N3CCOCC3)CCCCC2)cc1 [Compound 156]
Between the entries labeled A and B , whose measured inhibition at 40 µM is lower? // output: label of the selected item
B

1: Cc1ccc(S(=O)(=O)N[C@@H](CC(C)C)C(=O)Nc2ccc(N3CCOCC3)nc2)cc1 [Compound 12]
2: Cc1ccc(S(=O)(=O)N[C@@H](CC(C)C)C(=O)NCCN2CCOCC2)cc1 [Compound 18]
3: Cc1ccc(C(=O)N[C@@H](CC(C)C)C(=O)OCc2ccccc2)cc1 [Compound 50]
4: Cc1ccc(S(=O)(=O)N[C@@H](CC(C)C)C(=O)Nc2nc(-c3ccc(OC(F)(F)F)cc3)cs2)cc1 [Compound 95]
5: Cc1ccc(S(=O)(=O)N[C@@H](Cc2c[nH]c3ccccc23)C(=O)NCc2ccco2)cc1 [Compound 178]
rank_up(items): orders items by reported inhibition at 40 µM in ascending numerical order. The reply should contain the labels ordered as requested.
5, 2, 4, 1, 3
(5: 1.52%, 2: 14.8%, 4: 22.6%, 1: 43.8%, 3: 65.9%)
